measured on: SFRP-1 (Homo sapiens)
pIC50: −log10 of the molar value.
Note to self: values exactly at 6 are Met. So pIC50 at or above 6 is Met, below is Not met.

COCC(=O)N1CCC(NS(=O)(=O)c2cc(S(=O)(=O)c3ccc(F)cc3)ccc2C)CC1 : Not met
O=C(c1ccc(F)cc1)N1CCC(NS(=O)(=O)c2cc(S(=O)(=O)c3ccccc3)ccc2Cl)CC1 : Not met
O=S(=O)(NC1CCNCC1)c1cc(S(=O)(=O)c2ccc(NCCO)cc2)ccc1C(F)(F)F : Met
CN(CCNS(=O)(=O)c1cc(S(=O)(=O)c2ccccc2)ccc1C(F)(F)F)C(=O)Oc1ccc(Br)cc1 : Not met
O=S(=O)(NCCc1ccc(-c2nn[nH]n2)cc1)c1cc(S(=O)(=O)c2ccccc2)ccc1C(F)(F)F : Met

###

measured on: SFRP-1 (Homo sapiens)
test details: Cell-based assay for in vitro measurement of SFRP-1/SARP2 antagonist activity (U2OS cells co-transfected with 16x TCF-tk-Luciferase reporter, Wnt and hSFRP-1)
measurement context: U2OS, read-out: Fold Induction with SFRP-1, Conc 15 μM; with SFRP-1; fold induction over SFRP-1 control, single dose
Param label: returns true when fold induction at 15 µM < 2, returns false otherwise, including exact equality.

CC(=O)c1cccc(S(=O)(=O)c2ccc(C)c(S(=O)(=O)NCCc3ccccn3)c2)c1 [Example 419] : false
CCc1ccc(S(=O)(=O)c2ccccc2)cc1S(=O)(=O)N1CCN(CCCN2CCOCC2)CC1 [Example 289] : false
COc1ccc(S(=O)(=O)c2ccccc2)cc1S(=O)(=O)NCCc1ccncc1 [Example 235] : true
Cc1ccc(S(=O)(=O)c2ccc(F)cc2)cc1S(=O)(=O)NCCN1CCOCC1 [Example 169] : false
Cc1ccc(S(=O)(=O)c2ccc(F)cc2)cc1S(=O)(=O)NCCC(=O)O [Example 180] : true
Cc1ccc(S(=O)(=O)c2cccc(Cl)c2)cc1S(=O)(=O)NCCCn1ccnc1 [Example 342] : false
Cc1ccc(S(=O)(=O)c2ccccc2)cc1S(=O)(=O)NCCCN(C)C [Example 216] : false

###

measured on: SFRP-1 (Homo sapiens)
test details: Cell-based assay for in vitro measurement of SFRP-1/SARP2 antagonist activity (U2OS cells co-transfected with 16x TCF-tk-Luciferase reporter, Wnt and hSFRP-1)
measurement context: U2OS, read-out: Fold Induction with SFRP-1, Conc 15 μM; single dose; luciferase reporter, fold induction over SFRP-1 control; cells with SFRP-1
test readout: fold induction at 15 µM

CC(C)c1ccc(S(=O)(=O)c2ccc(F)cc2)cc1S(=O)(=O)NC1CCN(Cc2ccccc2)CC1 : 2.1
CCCc1ccc(S(=O)(=O)c2ccc(F)cc2)cc1S(=O)(=O)NCC1CCOCC1 : 2.3
CC(C)c1ccc(S(=O)(=O)c2ccc(N(C)C)cc2)cc1S(=O)(=O)NCCC1CCOCC1 : 2.2
Cc1ccc(S(=O)(=O)c2ccccc2)cc1S(=O)(=O)NC1CCN(C(=O)N(C)C)CC1 : 2.7
COc1ccc(Cl)cc1S(=O)(=O)c1ccc(C(C)C)c(S(=O)(=O)NCCc2ccccn2)c1 : 1.9
CC(C)c1ccc(S(=O)(=O)c2cccc(C(F)(F)F)c2)cc1S(=O)(=O)NCCc1ccccn1 : 2.3
CCCc1ccc(S(=O)(=O)c2ccccc2)cc1S(N)(=O)=O : 1.4
CN(C)c1ccc(S(=O)(=O)c2ccccc2)cc1S(=O)(=O)NCCc1ccccn1 : 2

###

Recorded fold induction at 15 µM, one value per entry.
measured on: SFRP-1 (Homo sapiens, UniProt Q8N474)
Sequence (Q8N474 32-314): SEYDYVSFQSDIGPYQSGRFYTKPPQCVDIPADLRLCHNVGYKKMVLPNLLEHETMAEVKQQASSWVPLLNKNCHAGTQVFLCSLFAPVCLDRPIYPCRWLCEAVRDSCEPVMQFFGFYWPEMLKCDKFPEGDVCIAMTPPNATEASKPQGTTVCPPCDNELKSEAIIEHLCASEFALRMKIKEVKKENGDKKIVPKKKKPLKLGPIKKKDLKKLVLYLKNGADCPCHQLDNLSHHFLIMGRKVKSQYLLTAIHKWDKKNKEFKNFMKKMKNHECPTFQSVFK
test details: Cell-based assay for in vitro measurement of SFRP-1/SARP2 antagonist activity (U2OS cells co-transfected with 16x TCF-tk-Luciferase reporter, Wnt and hSFRP-1)
measurement context: U2OS, read-out: Fold Induction with SFRP-1, Conc 15 μM; with SFRP-1; fold induction over SFRP-1 control, single dose
test readout: fold induction at 15 µM

O=S(=O)(NCCc1ccccc1F)c1cccc(S(=O)(=O)c2ccccc2)c1 : 1.2
Cc1ccc(S(=O)(=O)c2ccccc2)cc1S(=O)(=O)NC1CCN(C(=O)C2CC2)CC1 : 1.9
CCc1ccc(S(=O)(=O)c2ccccc2)cc1S(=O)(=O)NCCc1ccccc1 : 3.3
COc1ccccc1CCNS(=O)(=O)c1cc(S(=O)(=O)c2ccccc2)ccc1OC : 1.4
Cc1ccc(S(=O)(=O)c2ccc(NCc3ccc(C(F)(F)F)cc3)cc2)cc1S(=O)(=O)NCCCn1ccnc1 : 1.5
Cc1ccc(S(=O)(=O)c2ccc(C(C)C)cc2)cc1S(=O)(=O)NCCCn1ccnc1 : 1.2
COCCNS(=O)(=O)c1cc(S(=O)(=O)c2ccccc2)ccc1C : 2.5
CC(=O)Nc1ccc(C(=O)N2CCC(NS(=O)(=O)c3cc(S(=O)(=O)c4ccccc4)ccc3C)CC2)cc1 : 1.7
Cc1cc(C)c(S(=O)(=O)c2ccccc2)cc1S(=O)(=O)NCCCn1ccnc1 : 3
CNc1ccc(S(=O)(=O)c2ccc(C(C)C)c(S(=O)(=O)NCCc3ccccn3)c2)cc1 : 4.2
COCC(=O)N1CCC(NS(=O)(=O)c2cc(S(=O)(=O)c3ccccc3)ccc2C)CC1 : 3.6
Cc1cc(C)c(S(=O)(=O)c2ccc(F)cc2)cc1S(=O)(=O)NCCC1CCOCC1 : 1.7
Cc1ccc(S(=O)(=O)c2ccc(Cl)cc2)cc1S(=O)(=O)NCCN1CCOCC1 : 1.9
CNc1ccc(S(=O)(=O)c2ccc(C(C)C)c(S(=O)(=O)NC3CCOCC3)c2)cc1 : 2.9
COc1ccc(CCN(C)S(=O)(=O)c2cc(S(=O)(=O)c3ccccc3)ccc2C)cc1OC : 0.9
Cc1ccc(S(=O)(=O)c2ccccc2)cc1S(=O)(=O)NCCCN1CCCC1 : 3.6
CCc1ccc(S(=O)(=O)c2ccccc2)cc1S(=O)(=O)N1CCN(CCN2CCCC2)CC1 : 3.6
Cc1ccc(S(=O)(=O)c2ccc(C(C)(C)O)cc2)cc1S(=O)(=O)NCCc1ccccn1 : 2.1
CCN(CC)CCN1CCN(S(=O)(=O)c2cc(S(=O)(=O)c3ccccc3)ccc2C)CC1 : 2.7
COc1ccc(S(=O)(=O)c2ccccc2)cc1S(=O)(=O)NCCc1ccccn1 : 1.2
Cc1cc(C)c(S(=O)(=O)c2ccc(F)cc2)cc1S(=O)(=O)NCCc1ccccn1 : 2.3
COc1ccccc1S(=O)(=O)c1ccc(C(C)C)c(S(=O)(=O)NCCc2ccccn2)c1 : 2.9
Cc1ccc(S(=O)(=O)c2ccc(Cl)c(Cl)c2)cc1S(=O)(=O)NCCCn1ccnc1 : 2.5
Cc1ccc(S(=O)(=O)c2ccc(NCCCOC(C)C)cc2)cc1S(=O)(=O)NCCCn1ccnc1 : 2.2
Cc1ccc(S(=O)(=O)c2ccc(Br)cc2)cc1S(=O)(=O)NCCc1ccccn1 : 2.1
Cc1ccc(S(=O)(=O)c2ccc(NCCC#N)cc2)cc1S(=O)(=O)NCCCn1ccnc1 : 3.3
Cc1ccc(S(=O)(=O)c2ccc(C(C)(C)C)cc2)cc1S(=O)(=O)NCCCn1ccnc1 : 2
O=S(=O)(NCCc1ccccc1)c1cc(S(=O)(=O)c2ccccc2)ccc1Cl : 1.5
Cc1ccc(S(=O)(=O)c2ccc(F)cc2)cc1S(=O)(=O)NCCC(N)=O : 1.8
Cc1ccc(S(=O)(=O)c2ccccn2)cc1S(=O)(=O)NCCCn1ccnc1 : 1.7
Cc1ccc(S(=O)(=O)c2ccc(NCc3ccccc3)cc2)cc1S(=O)(=O)NCCCn1ccnc1 : 1.8
Cc1ccc(S(=O)(=O)c2ccccc2-c2ccccc2)cc1S(=O)(=O)NCCc1ccccn1 : 1.9
COC(=O)CCNS(=O)(=O)c1cc(S(=O)(=O)c2ccccc2)ccc1C : 3.4

###

measured on: SFRP-1 (Homo sapiens)
test details: Cell-based assay for in vitro measurement of SFRP-1/SARP2 antagonist activity (U2OS cells co-transfected with 16x TCF-tk-Luciferase reporter, Wnt and hSFRP-1)
measurement context: U2OS, read-out: Fold Induction without SFRP-1, Conc 15 μM; without SFRP-1, single dose
test readout: fold induction at 15 µM

Cc1cc(S(=O)(=O)c2ccccc2)cc(S(=O)(=O)NCCCn2ccnc2)c1C [Example 348] : 1.2
CCc1ccc(S(=O)(=O)c2ccccc2)cc1S(=O)(=O)NCCC1CCOCC1 [Example 301] : 1.2
Cc1ccc(S(=O)(=O)c2ccccc2)cc1S(=O)(=O)N1CCN(CCN2CCOCC2)CC1 [Example 281] : 1.3
Cc1ccc(S(=O)(=O)c2ccccc2)cc1S(=O)(=O)NCCN(C)C [Example 214] : 1.5
Cc1ccc(S(=O)(=O)c2ccc(F)cc2)cc1S(=O)(=O)NCCCn1ccnc1 [Example 177] : 1

###

# fold induction at 15 µM per entry
measured on: SFRP-1 (Homo sapiens)
test details: Cell-based assay for in vitro measurement of SFRP-1/SARP2 antagonist activity (U2OS cells co-transfected with 16x TCF-tk-Luciferase reporter, Wnt and hSFRP-1);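 further: U2OS cells co-transfected with a TCF-tk luciferase reporter, a Wnt vector, hSFRP-1 or empty vector and CMV-βgal, luciferase luminescence read in cell lysates alongside βgal activity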
measurement context: U2OS, read-out: Fold Induction without SFRP-1, Conc 15 μM; single dose; luciferase reporter; cells without SFRP-1 (specificity control)
test readout: fold induction at 15 µM

CC(C)c1ccc(S(=O)(=O)c2ccc(F)cc2)cc1S(=O)(=O)NCC1CCCO1 (stereo not shown) : 1.1
CC(C)c1cc(C(C)C)c(S(=O)(=O)c2ccc(F)cc2)cc1S(=O)(=O)NC1CCCC1 : 1
CC(C)c1ccc(S(=O)(=O)c2ccc(NCCC#N)cc2)cc1S(=O)(=O)NCC1CCOCC1 : 1.2
CCCc1ccc(S(=O)(=O)c2ccc(F)cc2)cc1S(=O)(=O)NC1CCCC1 : 1.2
